experiment: Prediction of human clearance and exposure by scaling of IV PK data from mouse, rat and dog against body weight; conditions: human; simple scaling of systemic clearance against body weight, IV PK data of mouse, rat and dog; read-out: Human systemic clearance, estimated (converted)
EXPERIMENTAL_READOUT: clearance (mL/min)
# value in mL/min; strip the unit string

Challenge: Name the reported clearance value associated with the molecule COCCCCCCCCCN1C[C@H](O)[C@@H](O)[C@H](O)[C@H]1CO [UV-4, N-(9’-methoxynonyl)-1-deoxynojirimycin]
Response given: 560

---

experiment: Phase 1a single ascending dose study: UV-4 plasma concentrations and PK parameters (LC-MS/MS, noncompartmental); assay type: in vivo; conditions: both sexes, human, plasma, po, 1000 mg, 1000 mg single oral dose; Ar Mean; read-out: t1/2 (converted)
EXPERIMENTAL_READOUT: half-life
Report field: quantity (unit follows the number).

Challenge: Name the reported half-life value associated with the compound `COCCCCCCCCCN1C[C@H](O)[C@@H](O)[C@H](O)[C@H]1CO`
Response given: 8.8 h

---

experiment: Phase 1a single ascending dose study: UV-4 plasma concentrations and PK parameters (LC-MS/MS, noncompartmental); type: in vivo; conditions: both sexes, human, plasma, po, 10 mg, 10 mg single oral dose; Geo Mean; read-out: t1/2 (converted)
EXPERIMENTAL_READOUT: half-life (h)
# value in h; strip the unit string

Challenge: Name the reported half-life value associated with the molecule COCCCCCCCCCN1C[C@H](O)[C@@H](O)[C@H](O)[C@H]1CO [UV-4, N-(9’-methoxynonyl)-1-deoxynojirimycin]
Response given: 11.9

---

assay: Phase 1a single ascending dose study: UV-4 plasma concentrations and PK parameters (LC-MS/MS, noncompartmental); format: in vivo; details: both sexes, human, plasma, po, 3 mg, 3 mg single oral dose; Ar Mean; read-out: Vz/F
EXPERIMENTAL_READOUT: Vd/F (L)
# value in L; strip the unit string

Challenge: Name the reported Vd/F value associated with the molecule COCCCCCCCCCN1C[C@H](O)[C@@H](O)[C@H](O)[C@H]1CO [UV-4B]
Response given: 491

---

Assay: Phase 1a single ascending dose study: UV-4 plasma concentrations and PK parameters (LC-MS/MS, noncompartmental)
Type: in vivo
Conditions: both sexes, human, plasma, po, 30 mg, 30 mg single oral dose; Geo Mean; read-out: t1/2 (converted)
Experimental: UV-4 ((2R,3R,4R,5S)-2-(hydroxymethyl)-1-(9-methoxynonyl)piperidine-3,4,5-triol, also called N-(9’-methoxynonyl)-1-deoxynojirimycin, or MON-DNJ) hydrochloride was evaluated in a first-in-human, randomized, single-center, double-blind, placebo-controlled, parallel group, single ascending dose Phase 1a clinical trial in healthy subjects (Figs 1 and 2, ClinicalTrials.gov Identifier NCT02061358 https://clinicaltrials.gov/ct2/show/NCT02061358). […]
EXPERIMENTAL_READOUT: half-life (h)
# value in h; strip the unit string

Challenge: Name the reported half-life value associated with the compound COCCCCCCCCCN1C[C@H](O)[C@@H](O)[C@H](O)[C@H]1CO [UV-4, N-(9’-methoxynonyl)-1-deoxynojirimycin]
Response given: 10

---

assay: Phase 1a single ascending dose study: UV-4 in pooled urine, urinary recovery and renal clearance; assay type: in vivo, human; details: both sexes, human, urine, po, 180 mg, 180 mg single oral dose; Geo Mean
EXPERIMENTAL_READOUT: CL renal (mL/min)
# value in mL/min; strip the unit string

Challenge: Name the reported CL renal value associated with the molecule `COCCCCCCCCCN1C[C@H](O)[C@@H](O)[C@H](O)[C@H]1CO`
Response given: 232
